target: Kappa-type opioid receptor (Homo sapiens)
Sequence (P41145 whole entry): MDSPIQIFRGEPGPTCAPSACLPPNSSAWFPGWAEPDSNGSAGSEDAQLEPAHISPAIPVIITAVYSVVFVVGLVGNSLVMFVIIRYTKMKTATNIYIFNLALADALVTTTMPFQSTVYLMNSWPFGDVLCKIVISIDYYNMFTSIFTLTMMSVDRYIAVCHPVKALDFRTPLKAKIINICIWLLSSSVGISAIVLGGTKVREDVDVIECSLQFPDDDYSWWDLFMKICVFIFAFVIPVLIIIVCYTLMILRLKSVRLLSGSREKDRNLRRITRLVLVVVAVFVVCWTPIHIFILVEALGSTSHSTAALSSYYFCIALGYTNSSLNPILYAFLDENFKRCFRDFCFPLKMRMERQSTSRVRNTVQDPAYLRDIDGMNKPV
Recorded measurements of pKi, one per entry
Conceptually, pKi converts a concentration in mol/L into minus its log10.

Reference set, count: 5
[[record]]
compound = "O=C(c1cc2c(cc1F)OC(c1ccc(F)cc1)(c1ccc(Cl)cc1Cl)O2)N1CCOCC1 (stereo unspecified)"
recorded_value = 6.30

[[record]]
compound = "S=C(NCCCc1c[nH]cn1)NCCCN(Cc1ccc(Cl)c(Cl)c1)c1ccc(Br)cn1"
recorded_value = 5.95

[[record]]
compound = "CN1CCC(C(=O)c2cccc(NC(=O)c3c(F)cc(F)cc3F)n2)CC1"
recorded_value = 6.45

[[record]]
compound = "N#Cc1c(N)nc(SCC(N)=O)c(C#N)c1-c1ccc(OCC2CC2)cc1"
recorded_value = 6.39

[[record]]
compound = "Cc1csc2c(N[C@@H](C)CN3CCN(S(=O)(=O)c4ccc(Cl)c(Cl)c4)CC3)ncnc12"
recorded_value = 6.31


Entry COc1ccc2cc(S(=O)(=O)N[C@H](CC(=O)N[C@H](Cc3ccc(CN4[C@H](C)CCC[C@@H]4C)cc3)C(=O)N(C)C(C)C)c3ccc4c(c3)OCO4)ccc2c1 , Kappa-type opioid receptor (Homo sapiens) data, pKi value: 6.71

---

biological target: Sigma intracellular receptor 2 (Homo sapiens); experiment: PDSP Secondary Binding target: TMEM97 - Compounds are tested at 10 uM concentration, plate are incubated at room temperature in the dark for 90 minutes. Reaction are stopped by vacuum filtration onto 0.3% polyethyleneimine soaked filter mats using Filtermate harvester. Scintillation cocktail is then melted onto microwave-dried filters on a hot plate and the radio activity is counted in Microbia counter.
Sequence (Q5BJF2 whole entry): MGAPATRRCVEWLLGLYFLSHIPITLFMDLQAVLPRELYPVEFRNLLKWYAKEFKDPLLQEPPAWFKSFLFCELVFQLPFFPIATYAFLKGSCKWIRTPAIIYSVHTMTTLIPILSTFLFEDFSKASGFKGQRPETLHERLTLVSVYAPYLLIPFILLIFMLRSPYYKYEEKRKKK
Where a name gives a salt, the structure may show the parent alone.
quantity.name: pKi
Conceptually, pKi converts a concentration in mol/L into minus its log10.

Reference set, count: 4
[[record]]
compound = "CS(=O)(=O)NC[C@H]1CC[C@H](Nc2nc3c(s2)CCSc2ccccc2-3)CC1"
experimental_target = "Sigma intracellular receptor 2 (Homo sapiens)"
quantity_name = "pKi"
recorded_value = 5.76

[[record]]
compound = "CN1CCN(c2ccc(Nc3c4ccccc4nc4ccccc34)cc2)CC1"
experimental_target = "Sigma intracellular receptor 2 (Homo sapiens)"
quantity_name = "pKi"
recorded_value = 6.03

[[record]]
compound = "N#Cc1c[nH]c2c(C(=O)N3CCN(CCc4ccc(F)cc4)CC3)cccc12 [PRUVANSERIN]"
experimental_target = "Sigma intracellular receptor 2 (Homo sapiens)"
quantity_name = "pKi"
recorded_value = 5.93

[[record]]
compound = "COc1cccc([C@@H](C)NCCCc2ccccc2Cl)c1 [TECALCET HYDROCHLORIDE]"
experimental_target = "Sigma intracellular receptor 2 (Homo sapiens)"
quantity_name = "pKi"
recorded_value = 7.13


Here's the next entry for you.
get_value(item= CN(C)C(=O)N[C@H]1CC[C@H](CCN2CCN(c3cccc(Cl)c3Cl)CC2)CC1 [CARIPRAZINE HYDROCHLORIDE] , readout=pKi) returns 6.31

---

target: D(3) dopamine receptor (Homo sapiens)
Sequence (P35462 whole entry): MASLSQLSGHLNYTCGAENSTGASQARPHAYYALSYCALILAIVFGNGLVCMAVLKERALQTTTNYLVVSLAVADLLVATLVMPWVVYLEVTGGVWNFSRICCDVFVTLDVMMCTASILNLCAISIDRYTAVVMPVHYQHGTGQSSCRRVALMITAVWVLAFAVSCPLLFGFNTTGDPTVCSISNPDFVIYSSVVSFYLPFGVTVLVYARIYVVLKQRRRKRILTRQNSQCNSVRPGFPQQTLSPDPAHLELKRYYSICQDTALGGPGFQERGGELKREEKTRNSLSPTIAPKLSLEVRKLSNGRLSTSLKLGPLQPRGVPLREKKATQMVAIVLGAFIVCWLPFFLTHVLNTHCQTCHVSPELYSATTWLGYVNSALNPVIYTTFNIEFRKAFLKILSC
quantity.name: Ki (nM)
Give the number; nM is assumed, so skip it.

[[record]]
compound = "O=S1(=O)c2cccc3cccc(c23)N1CCCN1CCN(c2ccc(F)cc2)CC1 [FANANSERIN]"
quantity_name = "Ki"
recorded_value = 1020


Entry O=C1O[C@]2(CC[C@H](C(=O)Nc3ccn(-c4ccccc4F)n3)CC2)c2cnccc21 [MK-0557] , D(3) dopamine receptor (Homo sapiens) data, Ki value: 3570

Entry CS(=O)(=O)NC[C@H]1CC[C@H](Nc2nc3c(s2)CCSc2ccccc2-3)CC1 , D(3) dopamine receptor (Homo sapiens) data, Ki value: 498

Entry N[C@H](C(=O)O)c1ccc(C(=O)O)c(C(=O)O)c1 , D(3) dopamine receptor (Homo sapiens) data, Ki value: 2040

Entry COc1ccc(/C=C/CCCCOc2ccc(C(=O)c3cccc(C(=O)O)c3)cc2CCC(=O)O)cc1 , D(3) dopamine receptor (Homo sapiens) data, Ki value: 1960

---

target: Sodium-dependent serotonin transporter (Homo sapiens)
Sequence (P31645 whole entry): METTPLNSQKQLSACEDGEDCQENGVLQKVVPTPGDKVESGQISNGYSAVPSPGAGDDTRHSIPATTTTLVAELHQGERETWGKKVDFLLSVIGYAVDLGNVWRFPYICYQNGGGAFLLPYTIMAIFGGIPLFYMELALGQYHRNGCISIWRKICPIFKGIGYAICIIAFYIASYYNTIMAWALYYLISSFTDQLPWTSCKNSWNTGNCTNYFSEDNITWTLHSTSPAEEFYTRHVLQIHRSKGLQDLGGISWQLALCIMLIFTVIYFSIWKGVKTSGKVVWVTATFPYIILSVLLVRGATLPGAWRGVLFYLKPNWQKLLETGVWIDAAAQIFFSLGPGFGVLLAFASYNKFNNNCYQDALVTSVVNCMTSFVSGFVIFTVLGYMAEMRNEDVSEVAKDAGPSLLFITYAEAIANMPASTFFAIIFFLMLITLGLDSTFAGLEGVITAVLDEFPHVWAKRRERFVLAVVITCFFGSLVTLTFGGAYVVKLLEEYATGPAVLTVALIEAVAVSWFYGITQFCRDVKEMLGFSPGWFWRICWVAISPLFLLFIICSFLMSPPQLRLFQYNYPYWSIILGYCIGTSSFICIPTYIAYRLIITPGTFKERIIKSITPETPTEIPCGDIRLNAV
pKi: −log10 of the molar value.
Each entry gets not satisfied if its pKi stays under 6, and satisfied if its pKi is 6 or above.

# bool: pKi of O=c1ccc2ccc(OCCCCN3CCN(c4cccc5sccc45)CC3)cc2[nH]1 >= 6
satisfied

# bool: pKi of OC1(c2ccc(Cl)cc2)CCN(Cc2c[nH]c3ccccc23)CC1 >= 6
satisfied

# bool: pKi of Cc1nc2sccn2c(=O)c1CCN1CCC(=C(c2ccc(F)cc2)c2ccc(F)cc2)CC1 >= 6
satisfied

# bool: pKi of C[C@@H](NCCc1ccc(O)cc1)[C@@H](O)c1ccc(O)cc1 (relative stereo) >= 6
not satisfied

# bool: pKi of N[C@H](C(=O)O)c1ccc(C(=O)O)c(C(=O)O)c1 >= 6
not satisfied

# bool: pKi of Cc1c(OCc2cccc(-c3ccc(C(=O)O)cc3)c2)cc2c(c1C)C(=O)C(C1CCCC1)C2 (configuration not stated) >= 6
not satisfied

# bool: pKi of COc1cc(-n2cnc3cc(-c4ccc(Cl)cc4)sc3c2=O)ccc1OCCN1CCCC1 >= 6
not satisfied

# bool: pKi of CCCNS(=O)(=O)Nc1ncnc(OCCOc2ncc(Br)cn2)c1-c1ccc(Br)cc1 >= 6
not satisfied

# bool: pKi of O=C(O)c1n[nH]c2c1C[C@H]1C[C@@H]21 >= 6
not satisfied

---

Counter-ions that a name gives are not always drawn.
Here we list compounds with their recorded Ki when tested on Muscarinic acetylcholine receptor M5 (Homo sapiens, UniProt P08912).
Sequence (P08912 whole entry): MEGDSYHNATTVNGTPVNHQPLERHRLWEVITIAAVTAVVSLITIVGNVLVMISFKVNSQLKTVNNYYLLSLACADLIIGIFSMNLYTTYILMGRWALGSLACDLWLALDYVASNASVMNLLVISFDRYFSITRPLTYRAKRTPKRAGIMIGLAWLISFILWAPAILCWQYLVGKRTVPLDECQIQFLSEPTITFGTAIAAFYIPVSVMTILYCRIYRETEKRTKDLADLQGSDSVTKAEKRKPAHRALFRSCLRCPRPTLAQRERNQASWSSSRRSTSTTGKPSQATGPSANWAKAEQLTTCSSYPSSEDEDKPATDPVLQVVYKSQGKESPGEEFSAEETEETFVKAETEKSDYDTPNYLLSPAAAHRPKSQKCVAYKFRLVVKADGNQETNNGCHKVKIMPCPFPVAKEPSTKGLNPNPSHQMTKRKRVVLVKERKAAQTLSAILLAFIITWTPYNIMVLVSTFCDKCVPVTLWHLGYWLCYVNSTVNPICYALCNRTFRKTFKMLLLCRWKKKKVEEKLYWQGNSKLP
Give the number; nM is assumed, so skip it.

Reference set, count: 3
[[record]]
compound = "N#Cc1c(O)nc(SCc2cccc(F)c2F)nc1C1CC1"
reading_unit = "nM"
recorded_value = 6560

[[record]]
compound = "Cc1ccc(O)c([C@H](CCN(C(C)C)C(C)C)c2ccccc2)c1 [TOLTERODINE TARTRATE]"
reading_unit = "nM"
recorded_value = 3.86

[[record]]
compound = "Cc1nc(-c2ccc(-c3ccc(C(=O)N4CCc5cc6c(cc54)C4(CCN(C)CC4)CO6)cc3)c(C)c2)no1"
reading_unit = "nM"
recorded_value = 344


Entry COC(=O)C1=C(C)NC(C)=C(C(=O)OCCCN2CCC(c3ccccc3)(c3ccccc3)CC2)[C@H]1c1cccc([N+](=O)[O-])c1 , Muscarinic acetylcholine receptor M5 (Homo sapiens, UniProt P08912) data, Ki value: 718

Entry Cc1nc(-c2ccc(C(F)(F)F)cc2)sc1COc1ccc([C@H](CC(=O)O)c2ccon2)cc1 , Muscarinic acetylcholine receptor M5 (Homo sapiens, UniProt P08912) data, Ki value: 6850

Entry OCc1cc(C(O)CNCCCCCCOCCCCc2ccccc2)ccc1O (stereo not drawn) , Muscarinic acetylcholine receptor M5 (Homo sapiens, UniProt P08912) data, Ki value: 971

---

Here we list compounds with their recorded pKi when tested on Histamine H1 receptor (Homo sapiens, UniProt P35367).
Sequence (P35367 whole entry): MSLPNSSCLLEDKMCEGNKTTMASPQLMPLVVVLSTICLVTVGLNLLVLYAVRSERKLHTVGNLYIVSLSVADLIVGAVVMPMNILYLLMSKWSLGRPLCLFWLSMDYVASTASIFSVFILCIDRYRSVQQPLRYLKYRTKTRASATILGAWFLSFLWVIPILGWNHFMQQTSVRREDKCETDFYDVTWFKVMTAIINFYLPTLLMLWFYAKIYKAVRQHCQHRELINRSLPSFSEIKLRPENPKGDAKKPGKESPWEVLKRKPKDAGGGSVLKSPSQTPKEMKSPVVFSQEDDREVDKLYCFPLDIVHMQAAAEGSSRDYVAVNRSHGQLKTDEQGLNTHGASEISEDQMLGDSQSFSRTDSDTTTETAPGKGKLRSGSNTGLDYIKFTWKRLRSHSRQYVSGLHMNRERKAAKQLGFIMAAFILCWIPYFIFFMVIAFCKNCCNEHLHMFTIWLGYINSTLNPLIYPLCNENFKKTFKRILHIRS
Structures can show the parent of a compound that is named as a salt.
Conceptually, pKi converts a concentration in mol/L into minus its log10.

[[record]]
compound = "Clc1cccc(COc2cncc(N3CCNCC3)n2)c1"
recorded_value = 5.84


Here's the next entry for you.
Entry Clc1ccc(CCCOCCCN2CCCCC2)cc1 [PITOLISANT HYDROCHLORIDE] , Histamine H1 receptor (Homo sapiens, UniProt P35367) data, pKi value: 5.92

---

Molecular target: Muscarinic acetylcholine receptor M1 (Homo sapiens)
Sequence (P11229 whole entry): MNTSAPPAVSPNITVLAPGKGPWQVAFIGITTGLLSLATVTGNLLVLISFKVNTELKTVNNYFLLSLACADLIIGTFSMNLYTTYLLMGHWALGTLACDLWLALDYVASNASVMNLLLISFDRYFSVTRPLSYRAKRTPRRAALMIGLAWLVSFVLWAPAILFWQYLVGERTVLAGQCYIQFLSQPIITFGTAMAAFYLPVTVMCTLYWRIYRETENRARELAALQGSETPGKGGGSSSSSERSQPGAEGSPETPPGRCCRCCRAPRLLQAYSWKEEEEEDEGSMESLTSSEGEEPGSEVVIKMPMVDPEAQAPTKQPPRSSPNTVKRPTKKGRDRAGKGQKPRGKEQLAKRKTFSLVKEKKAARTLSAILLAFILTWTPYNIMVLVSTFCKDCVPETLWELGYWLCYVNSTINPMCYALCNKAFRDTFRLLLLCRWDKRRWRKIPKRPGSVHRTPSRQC
Recorded measurements of Ki, one per entry
Give the number; nM is assumed, so skip it.

Reference set, count: 3
[[record]]
compound = "CCN(CC)CCCCC1CCN(CC(=O)N2c3ccccc3C(=O)Nc3cccnc32)CC1"
quantity_name = "Ki"
recorded_value = 258

[[record]]
compound = "Cc1cn2cc(CC(=O)N3CCC4(CC3)CN(Cc3ccc(-n5nccn5)cc3Cl)C4)nc2s1"
quantity_name = "Ki"
recorded_value = 846

[[record]]
compound = "Cc1c(P(=S)(c2ccccc2)c2ccccc2)n2ccccc2[n+]1C/C=C/c1ccccc1"
quantity_name = "Ki"
recorded_value = 1180


Here's the next entry for you.
get_value(item= Cc1nc(-c2ccc(-c3ccc(C(=O)N4CCc5cc6c(cc54)C4(CCN(C)CC4)CO6)cc3)c(C)c2)no1 , readout=Ki) returns 1260
